test system: U2OS; assay: Multiplex assay against U2OS; assay type: toxicity, cell-based; settings: human, 12 h, 10 µM, compound concentration 10 uM, replicate 1
Readout Kind: Population Mitochondria Different-Phenotype (%)

INSERT INTO results (molecule, result_value) VALUES
  ('CCCSc1nc(N[C@@H]2C[C@H]2c2ccc(F)c(F)c2)c2nnn([C@@H]3C[C@H](OCCO)[C@@H](O)[C@H]3O)c2n1 [TICAGRELOR]', 99),
  ('C[C@]12CC[C@@H]3c4ccc(O)cc4CC[C@H]3[C@@H]1CC[C@@H]2O [ESTRADIOL]', 7),
  ('C=CC(=O)Nc1cccc(Oc2nc(Nc3ccc(N4CCN(C)CC4)cc3OC)ncc2Cl)c1', 7),
  ('CNC(=O)Nc1ccc2c(c1)[C@@]1(CC2)OC(=O)N(CC(=O)N(Cc2ccc(F)cc2)[C@@H](C)C(F)(F)F)C1=O [A-486]', 19),
  ('CC(C)Oc1ccccc1C(=O)Nc1ccccc1C(=O)Nc1cccc(S(=O)(=O)C(F)(F)F)c1', 61),
  ('COc1ccc(-c2ccc3ncc4c(c3c2)n(-c2ccc(N3CCNCC3)c(C(F)(F)F)c2)c(=O)n4C)cn1.O=C(O)/C=C\C(=O)O [BGT-226]', 50),
  ('COc1cc2ncn(-c3cc(OCc4ccccc4C(F)(F)F)c(C(N)=O)s3)c2cc1OC [GW843682X]', 83);

Source: ChEMBL document CHEMBL4689842
